Where do the numbers come from? From paper PMC12136788.

Entries and their binding signal
TARGET OR SYSTEM: T1, UNK ZnF1-6 (called full-length) (human, UniProt Q9C0B0 30-357)
T1 sequence: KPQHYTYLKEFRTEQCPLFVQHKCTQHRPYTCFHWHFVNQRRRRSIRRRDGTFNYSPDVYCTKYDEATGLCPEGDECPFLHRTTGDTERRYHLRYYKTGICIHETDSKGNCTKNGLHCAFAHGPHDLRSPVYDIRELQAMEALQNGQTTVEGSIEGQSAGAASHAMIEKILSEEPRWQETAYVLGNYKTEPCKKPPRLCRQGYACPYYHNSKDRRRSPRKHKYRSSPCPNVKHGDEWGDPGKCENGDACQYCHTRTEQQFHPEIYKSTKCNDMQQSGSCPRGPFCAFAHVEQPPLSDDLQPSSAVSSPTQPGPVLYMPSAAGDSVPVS
ASSAY DETAILS: nsRBNS (natural sequence RNA bind-n-seq); RBNS binding buffer (assumed for nsRBNS): 25 mM Tris pH 7.5, 150 mM KCl, 3 mM MgCl2, 0.01% Triton X-100, 500 ug/ml BSA, 20 U/ml SUPERase-In, 4 C; UNK is unkempt and MSI1 is Musashi-1; names of the RNAs are library labels; protein concentration not given here; high values mean tight binding
In all, about 5,800 sequences were measured (“enrichment r”: median about 0.68, highest 2% from about 11 on). Only a selection was taken, and the highest values are over-represented in it overall.
Response body: numeric value in enrichment R, unit text excluded.

Record excerpt, results attached:
chr11:58422334:58423261:-|CDS|ENSG00000172365|control|control|control (ssRNA) RNA: GGGAGUUCUACAGUCCGACGAUCACACACUAGUGAGGUGAUUCUGGUUUUUAUGUCAAGCUUUAAUAUCUUUUUUGUUCUUCUAGUUAUCUUUAUCUCCUACUUGUUCAUAUUCAUCACCAUCUUGAAGAUGCAUUCAGCUAACAACAGAGGAUUGAGCAUCA ... 12.5
chr3:125228010:125228111:-|3pUTR|ENSG00000163848|msi1|FALSE|unique (ssRNA) RNA: GGGAGUUCUACAGUCCGACGAUCAGUUCUCUUCAUAUUUCAUAACUACAUUUCAAUAAUUCUAAACUUUCUACAUUGAUUUUUAGAUACUUAUUUUUCAAGCUUGGUUUCUCAGCUGAUCAGAUGAAUUUAUUCAACUUCAAUCAACAGAGGAUUGAGCAUCA ... 3.33

As a next step, examine the binder that follows.
q: Reported binding signal for chr12:64147824:64147925:+|3pUTR|ENSG00000196935|unk|FALSE|unique (ssRNA) RNA: GGGAGUUCUACAGUCCGACGAUCCAUCUCUGUGGUGUCUUUGUUCCUUUCCUUUCAUUCAUCACUACUUUCUCCUUGACAGCUAGCUUGCAUUAAAUAAUGUGAAACUUUUACCUUUAAAAUAUUUUUUUAUCUCACUUUCAUCAACAGAGGAUUGAGCAUCA : what is it?
a: 10.6
